# protocol_summary: Toxicity in ip dosed athymic nude mouse administered as single dose
# Format: organism-based
# condition_notes: in vivo
property_name: MTD (mg/kg)
All answers are understood in mg/kg, so give the number only.

### Prompt Specify reported MTD for the compound shown: "CCc1cc2c(cc1OS(N)(=O)=O)CC[C@@H]1[C@@H]2CC[C@]2(C)[C@@H](CO)CC[C@@H]12"
### Response 400

* * *

# System: SN12C
# protocol_summary: Growth inhibition of human SN12C cells
# Assay type: functional
property_name: GI50 (µM)
All answers are understood in µM, so give the number only.

### Prompt Specify reported GI50 for the compound shown: COc1cc2c(cc1OS(N)(=O)=O)CC[C@@H]1[C@@H]2CC[C@]2(C)[C@@H](CC(C)O)CC[C@@H]12 (some centres undefined)
### Response 0.052

### Prompt Specify reported GI50 for the compound shown: "CCc1cc2c(cc1OS(N)(=O)=O)CC[C@@H]1[C@@H]2CC[C@]2(C)[C@@H](CCOC)CC[C@@H]12"
### Response 4.68

### Prompt Specify reported GI50 for the compound shown: "CCc1cc2c(cc1OS(N)(=O)=O)CC[C@@H]1[C@@H]2CC[C@]2(C)[C@@H](COC)CC[C@@H]12"
### Response 0.072

### Prompt Specify reported GI50 for the compound shown: "CCOC(=O)C[C@H]1CC[C@H]2[C@@H]3CCc4cc(OS(N)(=O)=O)c(CC)cc4[C@H]3CC[C@]12C"
### Response 0.63

### Prompt Specify reported GI50 for the compound shown: "CCc1cc2c(cc1OS(N)(=O)=O)CC[C@@H]1[C@@H]2CC[C@]2(C)/C(=C/CO)CC[C@@H]12"
### Response 0.58

### Prompt Specify reported GI50 for the compound shown: "CCc1cc2c(cc1OS(N)(=O)=O)CC[C@@H]1[C@@H]2CC[C@]2(C)[C@@H](COS(N)(=O)=O)CC[C@@H]12"
### Response 0.309

### Prompt Specify reported GI50 for the compound shown: "CCc1cc2c(cc1OS(N)(=O)=O)CC[C@@H]1[C@@H]2CC[C@]2(C)[C@@H](OS(N)(=O)=O)CC[C@@H]12"
### Response 0.028

### Prompt Specify reported GI50 for the compound shown: "CCc1cc2c(cc1OS(N)(=O)=O)CC[C@@H]1[C@@H]2CC[C@]2(C)[C@@H](CCO)CC[C@@H]12"
### Response 2.45

* * *

# System: UACC-62
# protocol_summary: Growth inhibition of human UACC62 cells
# Assay type: functional
Consider the following molecules; for each one, report its GI50.
All answers are understood in nM, so give the number only.

### Prompt Specify reported GI50 for the molecule shown: "CCc1cc2c(cc1OS(N)(=O)=O)CC[C@@H]1[C@@H]2CC[C@]2(C)[C@@H](CC(F)F)CC[C@@H]12"
### Response 4900

### Prompt Specify reported GI50 for the molecule shown: "CCc1cc2c(cc1OS(N)(=O)=O)CC[C@@H]1[C@@H]2CC[C@]2(C)/C(=C/CO)CC[C@@H]12"
### Response 470

### Prompt Specify reported GI50 for the molecule shown: "CCOC(=O)C[C@H]1CC[C@H]2[C@@H]3CCc4cc(OS(N)(=O)=O)c(CC)cc4[C@H]3CC[C@]12C"
### Response 450

* * *

Consider the following compounds; for each one, report its GI50.
# Tested on: MCF7
# protocol_summary: Antiproliferative activity against estrogen-positive human MCF7 cells
# Format: functional
All answers are understood in nM, so give the number only.

### Prompt Specify reported GI50 for the compound shown: "CCc1cc2c(cc1OS(N)(=O)=O)CC[C@@H]1[C@@H]2CC[C@]2(C)[C@@H](CC(C)=O)CC[C@@H]12"
### Response 320

### Prompt Specify reported GI50 for the compound shown: "CCc1cc2c(cc1O)CC[C@@H]1[C@@H]2CC[C@]2(C)[C@@H](CC(C)=O)CC[C@@H]12"
### Response 5790

### Prompt Specify reported GI50 for the compound shown: "CCc1cc2c(cc1OS(N)(=O)=O)CC[C@@H]1[C@@H]2CC[C@]2(C)[C@@H](C(C)=O)CC[C@@H]12"
### Response 26

### Prompt Specify reported GI50 for the compound shown: "CCOC(=O)C[C@H]1CC[C@H]2[C@@H]3CCc4cc(O)c(CC)cc4[C@H]3CC[C@]12C"
### Response 26400

### Prompt Specify reported GI50 for the compound shown: "CCc1cc2c(cc1O)CC[C@@H]1[C@@H]2CC[C@]2(C)/C(=C/CO)CC[C@@H]12"
### Response 770

### Prompt Specify reported GI50 for the compound shown: "CCOC(=O)/C=C1\CC[C@H]2[C@@H]3CCc4cc(O)c(CC)cc4[C@H]3CC[C@]12C"
### Response 30600

### Prompt Specify reported GI50 for the compound shown: "CCOC(=O)/C=C1\CC[C@H]2[C@@H]3CCc4cc(OS(N)(=O)=O)c(CC)cc4[C@H]3CC[C@]12C"
### Response 1850

### Prompt Specify reported GI50 for the compound shown: "CCc1cc2c(cc1O)CC[C@@H]1[C@@H]2CC[C@]2(C)/C(=C\CO)CC[C@@H]12"
### Response 670

### Prompt Specify reported GI50 for the compound shown: "CCOC(=O)C[C@H]1CC[C@H]2[C@@H]3CCc4cc(OS(N)(=O)=O)c(CC)cc4[C@H]3CC[C@]12C"
### Response 4190

* * *

# Test system: SN12C
# protocol_summary: Growth inhibition of human SN12C cells
# Format: functional
property_name: GI50 (µM)
All answers are understood in µM, so give the number only.

### Prompt Specify reported GI50 for the compound shown: "CCc1cc2c(cc1OS(N)(=O)=O)CC[C@@H]1[C@@H]2CC[C@]2(C)[C@@H](CC(F)F)CC[C@@H]12"
### Response 5.37

### Prompt Specify reported GI50 for the compound shown: "CCc1cc2c(cc1OS(N)(=O)=O)CC[C@@H]1[C@@H]2CC[C@]2(C)[C@@H](CCF)CC[C@@H]12"
### Response 7.59

* * *

# Tested on: HOP-62
# protocol_summary: Growth inhibition of human HOP62 cells
# Type: functional
Consider the following compounds; for each one, report its GI50.

### Prompt Specify reported GI50 for the compound shown: "CCc1cc2c(cc1OS(N)(=O)=O)CC[C@@H]1[C@@H]2CC[C@]2(C)[C@@H](CO)CC[C@@H]12"
### Response < 10 nM

### Prompt Specify reported GI50 for the compound shown: "CCc1cc2c(cc1OS(N)(=O)=O)CC[C@@H]1[C@@H]2CC[C@]2(C)[C@@H](COS(N)(=O)=O)CC[C@@H]12"
### Response 61 nM

### Prompt Specify reported GI50 for the compound shown: "CCc1cc2c(cc1OS(N)(=O)=O)CC[C@@H]1[C@@H]2CC[C@]2(C)[C@@H](CCF)CC[C@@H]12"
### Response 3720 nM

### Prompt Specify reported GI50 for the compound shown: "CCc1cc2c(cc1OS(N)(=O)=O)CC[C@@H]1[C@@H]2CC[C@]2(C)[C@@H](C(C)=O)CC[C@@H]12"
### Response < 10 nM

### Prompt Specify reported GI50 for the compound shown: "CCc1cc2c(cc1OS(N)(=O)=O)CC[C@@H]1[C@@H]2CC[C@]2(C)[C@@H](CC(F)F)CC[C@@H]12"
### Response 3890 nM

### Prompt Specify reported GI50 for the compound shown: "CCOC(=O)C[C@H]1CC[C@H]2[C@@H]3CCc4cc(OS(N)(=O)=O)c(CC)cc4[C@H]3CC[C@]12C"
### Response 590 nM

### Prompt Specify reported GI50 for the compound shown: "COc1cc2c(cc1OS(N)(=O)=O)CC[C@@H]1[C@@H]2CC[C@]2(C)[C@@H](CC(C)=O)CC[C@@H]12"
### Response < 10 nM

* * *

# Tested on: UACC-62
# protocol_summary: Growth inhibition of human UACC62 cells
# Type: functional
property_name: GI50 (nM)
All answers are understood in nM, so give the number only.

### Prompt Specify reported GI50 for the molecule shown: "CCc1cc2c(cc1OS(N)(=O)=O)CC[C@@H]1[C@@H]2CC[C@]2(C)[C@@H](COS(N)(=O)=O)CC[C@@H]12"
### Response 22

### Prompt Specify reported GI50 for the molecule shown: "CCc1cc2c(cc1OS(N)(=O)=O)CC[C@@H]1[C@@H]2CC[C@]2(C)[C@@H](CCOC)CC[C@@H]12"
### Response 2340

### Prompt Specify reported GI50 for the molecule shown: "CCc1cc2c(cc1OS(N)(=O)=O)CC[C@@H]1[C@@H]2CC[C@]2(C)[C@@H](CCF)CC[C@@H]12"
### Response 3890

### Prompt Specify reported GI50 for the molecule shown: "CCc1cc2c(cc1OS(N)(=O)=O)CC[C@@H]1[C@@H]2CC[C@]2(C)[C@@H](CCO)CC[C@@H]12"
### Response 2890
